Tested on: Nanoluciferase (engineered Oplophorus gracilirostris luciferase)
measurement-description: Primary Nanoluciferase (NLuc) qHTS assay for identification of artifact compounds. (AID 1845222);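 note: NLuc secreted into diluted conditioned medium of S16 cells; 0% = DMSO and -100% = no enzyme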
particulars: NLuc-conditioned medium, Nano-Glo luminescence, 5 min; series mostly up to 54.1 µM
From the text: PI: Alexander Tropsha Ph.D. UNC Eshelman School of Pharmacy University of North Carolina, Chapel Hill, North Carolina Hits from high-throughput screening (HTS) of chemical libraries are often false positives due to their interference with the assay detection technology. […] Using these curated datasets, we developed and validated several Quantitative Structure-Interference Relationship (QSIR) models to predict nuisance behavior. […] 6; Detection; Luminescence, ViewLux microplate reader. […]
The source made the active and inactive calls. Calls come from the whole dose curve; as a rule, active = well fitted inhibition curve with a large enough effect; inconclusive = small, poorly fitted or top-dose-only effect; inactive = flat fitted curve, though single readings scatter.
readout-type: activity, negative = inhibition

>>> reading("CC1=CCC(O)C2(C)CCC3C(C)C(=O)OC3C12 (stereo not drawn)")
"inactive"
>>> reading("CC(C)=CCC[C@](C)(O[C@@H]1O[C@H](CO)[C@@H](O)[C@H](O)[C@H]1O)[C@H]1CC[C@]2(C)[C@@H]1[C@H](O)CC1[C@@]3(C)CC[C@H](O)C(C)(C)C3[C@@H](O[C@@H]3O[C@H](CO)[C@@H](O)[C@H](O)[C@H]3O[C@@H]3O[C@@H](C)[C@H](O)[C@@H](O)[C@H]3O)C[C@]12C (stereo partly drawn)")
"4.23% [at 11.6 µM] (inactive)"
>>> reading("C=C(C)[C@@H]1CC[C@]2(C)CC[C@]3(C)C(CCC4[C@@]5(C)CC[C@H](O)C(C)(C)C5CC[C@]43C)C12 (stereo partly drawn)")
"inactive"
>>> reading("C/C=C(\\C)C1C(C)=CC2CCC(OS(=O)(=O)O)C(C)C2C1/C=C/C=C/C(=O)O (stereo not drawn)")
"inactive"
>>> reading("O=C(Nc1cc(-c2ccccc2)nn1-c1ccccc1F)c1ccc([N+](=O)[O-])cc1")
"inactive"
>>> reading("O=C(O)c1ccnc2cc(C(OCC3CCC(F)(F)CC3)c3ccccc3Cl)[nH]c12 (stereo not drawn)")
"inactive"
>>> reading("CC(C)C1(O)C=C2C(=O)CC3C(C)(C(=O)O)CCCC3(C)C2CC1 (stereo not drawn)")
"inactive"
>>> reading("O=C(CCc1ccccc1)c1c(O)c([C@@H]2O[C@H](CO)[C@@H](O)[C@H](O)[C@H]2O)c(O)c([C@@H]2O[C@H](CO)[C@@H](O)[C@H](O)[C@H]2O)c1O")
"inactive"
>>> reading("CSCC1OC(n2cnc3c(N)ncnc32)C(O)C1O (stereo not drawn)")
"inactive"
>>> reading("C/C=C/C=C/C=C/C(=O)O[C@@H]1[C@@H](OC)C2=C(C(=O)N(C(CCC(=O)O)C(=O)O)C2)[C@@]2(C)CCCC(C)(C)[C@H]12 (stereo partly drawn)")
"inactive"
>>> reading("C/C1=C\\CC(C)(C)/C=C/C/C(C(=O)O)=C/CC1")
"inactive"
>>> reading("COC(=O)C1=CO[C@@H](O[C@@H]2O[C@H](CO)[C@@H](O)[C@H](O)[C@H]2O)[C@H]2[C@@H]1C=C[C@]21C=C([C@H](C)OC(=O)/C=C/c2ccc(O[C@@H]3O[C@H](CO)[C@@H](O)[C@H](O)[C@H]3O)cc2)C(=O)O1")
"inactive"
>>> reading("C/C=C(\\C)C(=O)OC[C@H]1O[C@@H](O[C@H]2[C@@H](O[C@H]3O[C@H](COC(=O)/C(C)=C/C)[C@@H](O)[C@H](O)[C@H]3O[C@@H]3O[C@H](CO)[C@@H](O)[C@H](OC(=O)/C(C)=C/C)[C@H]3O)O[C@H](COC(=O)/C(C)=C/C)[C@@H](O)[C@@H]2O)[C@H](O)[C@@H](O)[C@@H]1O")
"-1.03% [at 11.6 µM] (inactive)"

* * *

Test system: Hek293T
measurement-description: Primary qHTS to identify gynecologic anti-cancer compounds using libraries of approved drugs and bioactive compounds (AID 1345084); note: % is set by controls: 0 for no effect and ±100 for the full control effect; nearly all actives have a fitted effect of over 55% in size
particulars: Gynecologic cancer cell panel viability, ATPlite luminescence, 48 h, control line for the selectivity index; series mostly up to 57.5 µM
Results filed as inconclusive are left out. Calls of active or inactive are those of the source. The call rests on the fitted dose curve; in most records, active means well fitted cell-killing curve with a large enough effect; inconclusive means small, poorly fitted or top-dose-only effect, or effect the other way; inactive means flat fitted curve, though single readings scatter.
readout-type: activity change, negative = cytotoxicity

>>> reading("CC1=CC(=O)CC(C)(C)C1CCC(C)O[C@@H]1O[C@H](CO)[C@@H](O)[C@H](O)[C@H]1O (stereo not given in full)")
"inactive"
>>> reading("CC1=CCC[C@@H]2[C@](CCc3ccoc3)(C(=O)O)[C@H](C)CC[C@@]12C")
"inactive"
>>> reading("Cc1ccc(C)c(NC(=O)CNS(=O)(=O)c2ccc3[nH]c(=O)oc3c2)c1")
"inactive"
>>> reading("CCN(CCN(C)C)C(=O)CNCc1cc(C(N)=O)ccn1")
"inactive"
>>> reading("OC[C@H]1O[C@@H](OC[C@H]2O[C@@H](OCc3ccccc3)[C@H](O)[C@@H](O)[C@@H]2O)[C@H](O)[C@@H](O)[C@@H]1O")
"inactive"
>>> reading("CSCC1OC(n2cnc3c(N)ncnc32)C(O)C1O (stereo not given)")
"inactive"
>>> reading("C[C@@H]1CC2OC(=O)C3=C2C(CCC3O)[C@@]12C[C@@H](c1ccoc1)OC2=O (stereo not given in full)")
"inactive"
>>> reading("C=CCc1cc(OC)c(OC(C)C(O)c2ccc(O)c(OC)c2)c(OC)c1 (stereo not given)")
"inactive"
>>> reading("O=C(O)CC/C=C\\C[C@H]1CO[C@@H](c2ccccc2Cl)O[C@H]1c1ccccc1O")
"inactive"
>>> reading("COc1c(C)c(OCC(O)C(C)(C)O)cc2c1CNC2=O (stereo not given)")
"inactive"

* * *

Listing of recorded max response by entry.
Test system: HEK293
measurement-description: Cytotoxic Profiling of Annotated Libraries Using Quantitative High-Throughput Screening (AID 1296008); note: % is set by controls: 0 for no effect and ±100 for the full control effect; nearly all actives have a fitted effect of over 60% in size
particulars: Five cell lines viability, CellTiter-Glo ATP luminescence, 48-72 h; active compounds read low
Records with an inconclusive call do not appear. *1 amine or outer side, *2 acyl side, *3 side chain or, on linkers, in order; H or OH if unused. Where a SMILES comes first, the peptide text is derived from it. Bridges are numbered along the chain shown (N, C = ends). [ ]: non-standard residue; d: D form. The star is where a group is joined. ξ: configuration not given here. ξhTyr(3S-OH,4S-OH,3'-OSO3H) = NC(C(=O)O)[C@H](O)[C@@H](O)c1ccc(O)c(OS(=O)(=O)O)c1; Orn(4R-OH,5R-OH) = O=C([C@H](C[C@@H](O)[C@@H](O)N[*:3])N[*:1])[*:2]; X2 = CCCCCOc1ccc(-c2cc(-c3ccc(C(=O)*)cc3)no2)cc1; X3 = C[C@H]1CN([*:1])C(C(=O)[*:2])[C@H]1O; ξGln(3R-OH) = NC(=O)C[C@@H](O)C(N)C(=O)O; ξPro(4R-OH) = O=C(O)C1C[C@@H](O)CN1; ξThr(3R) = C[C@@H](O)C(N)C(=O)O
readout-type: max response (%)

>>> reading("O=C(/C=C/c1ccc(O)cc1)OC[C@@]1(O)C=C[C@@H]2C(C(=O)O)=CO[C@@H](O[C@@H]3O[C@H](CO)[C@@H](O)[C@H](O)[C@H]3O)[C@@H]21")
-5.68
>>> reading("CC1(C)CC=C(c2cnc3ccccc3c2)c2cc(C(=O)Nc3ccc(C(=O)O)cc3)ccc21")
2.92
>>> reading("COC(=O)C1=COC(O[C@@H]2O[C@H](CO)[C@@H](O)[C@H](O)[C@H]2O)C2C(C)C(=O)CC12 (stereo not given in full)")
-2
>>> reading("CC(C)=CC[C@H]1O[C@]2(O)C([C@H]3CCC4[C@@]5(C)CC[C@H](O[C@@H]6O[C@H](CO)[C@H](O)[C@H](O[C@@H]7O[C@H](CO)[C@@H](O)[C@H](O)[C@H]7O)[C@H]6O[C@@H]6O[C@@H](C)[C@H](O)[C@@H](O)[C@H]6O)C(C)(C)C5CC[C@@]4(C)[C@]3(C)[C@H]2O)[C@@]1(C)O (stereo not given in full)")
2.46
>>> reading("COc1cnc(-n2cnc(C)n2)c2[nH]cc(C(=O)C(=O)N3CCN(C(=O)c4ccccc4)CC3)c12")
-12.9
>>> reading("Fc1ccccc1-c1nc2ccn(Cc3ccc(-c4ccc(C(F)(F)F)cc4C(F)(F)F)nn3)cc-2n1")
-5.52
>>> reading("CC1(C)CC[C@]2(C(=O)O[C@@H]3O[C@H](CO[C@@H]4O[C@H](CO[C@@H]5O[C@H](CO)[C@H](O)[C@H](O)[C@H]5O)[C@@H](O)[C@H](O)[C@H]4O)[C@@H](O)[C@H](O[C@@H]4O[C@H](CO)[C@@H](O)[C@H](O)[C@H]4O)[C@H]3O)[C@H](O)C[C@]3(C)C(=CCC4[C@@]5(C)CC[C@H](O[C@@H]6OC[C@@H](O)[C@H](O)[C@H]6O)[C@@](C)(C(=O)O)C5CC[C@]43C)[C@@H]2C1 (stereo not given in full)")
-1.97
>>> reading("COc1ccc2c(c1)C=C1Cn3c-2c(C2CCCCC2)c2ccc(cc23)C(=O)NS(=O)(=O)N(C)CCOCCN(C)C1=O")
-78
>>> reading("CC1=CC(=O)CC(C)(C)C1CCC(C)O[C@@H]1O[C@H](CO)[C@@H](O)[C@H](O)[C@H]1O (stereo not given in full)")
3.44
>>> reading("COc1cc(C(C)=O)ccc1O[C@@H]1O[C@H](CO[C@@H]2OC[C@@H](O)[C@H](O)[C@H]2O)[C@@H](O)[C@H](O)[C@H]1O")
-0.597
>>> reading("C=CC1(C)CC=C2C(CCC3C(C)(C(=O)O)CCCC23C)C1 (stereo not given)")
-4.6
>>> reading("NC[C@@H]1O[C@@H](O[C@@H]2[C@@H](O[C@@H]3O[C@H](CO)[C@@H](O)[C@H]3O)[C@H](O)[C@@H](N)C[C@H]2N)[C@@H](N)[C@H](O)[C@H]1O")
-4.01
>>> reading("COC(=O)C1=COC(OC2OC(CO)C(O)C(O)C2O)C2C(C)C(OC(=O)/C=C/c3ccc(O)cc3)C(O)C12 (stereo not given)")
-0.112
>>> reading("C/C=C1/[C@H](O[C@@H]2O[C@H](CO)[C@@H](O)[C@H](O)[C@H]2O)OC=C2C(=O)O[C@@H]3C[C@@H](C(C)CO)[C@H](COC(=O)C[C@H]21)[C@H]3C (stereo not given in full)")
-21.8
>>> reading("CCCCCOc1ccc(-c2cc(-c3ccc(C(=O)N[C@H]4C[C@@H](O)[C@@H](O)NC(=O)C5[C@@H](O)[C@@H](C)CN5C(=O)C([C@H](O)CC(N)=O)NC(=O)C([C@H](O)[C@@H](O)c5ccc(O)c(OS(=O)(=O)O)c5)NC(=O)C5C[C@@H](O)CN5C(=O)C([C@@H](C)O)NC4=O)cc3)no2)cc1 (stereo partly drawn) (X2-[Orn(4R-OH,5R-OH)][ξThr(3R)][ξPro(4R-OH)][ξhTyr(3S-OH,4S-OH,3'-OSO3H)][ξGln(3R-OH)][X3]; lactam 1-C)")
-7.85
>>> reading("CC(C)(O)[C@@H]1CC[C@]2(CO)[C@@H](O)CC[C@](C)(O)[C@H]2[C@@H]1O[C@@H]1O[C@H](CO)[C@@H](O)[C@H](O)[C@H]1O")
1.77
>>> reading("Cc1occc1C(=O)n1ccnc1")
0.475
>>> reading("C=C(C)C(O)COc1ccc(CC(=O)O)cc1 (stereo not given)")
2.49
>>> reading("CCCCNc1nc(N)c2[nH]c(=O)n(Cc3ccc(OCCN(C)C)nc3)c2n1")
-20.1
>>> reading("CC(C)[C@](O)(c1ccc2cc(OC(F)F)c(OC(F)F)cc2c1)c1cn[nH]n1")
-21.3
>>> reading("Cc1ccc2[nH]c(=O)c(C3=NN(C(=O)CCC(=O)O)C(c4ccc(Br)cc4)C3)c(-c3ccccc3)c2c1 (stereo not given)")
1.24
>>> reading("CC1=C[C@@H]2[C@H]3[C@@H]4O[C@@](C)(CC[C@H]4O)[C@H]3CC(=O)[C@]23C(=O)N[C@@H](CC(C)C)[C@@H]3[C@@H]1C")
4.29
>>> reading("C=C(C(=O)O)C1CC(OC(=O)CC(C)CC)C2(C)CCCC(=C)C2C1 (stereo not given)")
4.07
>>> reading("COc1cc(/C=C/C(=O)OCC2OC(OC3(CO)OC(CO)C(O)C3O)C(O)C(O)C2O)ccc1O (stereo not given)")
0.768
>>> reading("CC(C)=C1CC2[C@](C)(CC[C@@H](OC(=O)C3(C)OC3C)[C@@]2(C)O)CC1=O (stereo not given in full)")
4.03
